Source: patent US20140303084A1

Measured EC50 [µM], FXa generation assay values are reported for all entries that follow.
Target: human Factor IXa (human, UniProt P00740 47-191; P00740 227-461)
Assay: cell-based or functional assay
Square brackets hold non-standard residues; d marks the D form. Ends that are not written are not given here. NMeS = CN[C@@H](CO)C(=O)O; Nle = CCCC[C@H](N)C(=O)O

| Binder | Test readout | Result |
| --- | --- | --- |
| RRAPGKLTCLA[NMeS]YCWLFWTGIA (not fully specified (bridges); printed as RRAPGKLTCLA-MeSer-YCWLFWTGIA; cysteine pairing not given here) [RRAPGKLTCLA-MeSer-YCWLFWTGIA] | EC50 [µM], FXa generation assay | < 0.5 µM |

State the recorded EC50 [µM], FXa generation assay for this entry: RRAPGKLQCLASYCWLFWTG[Nle]A (not fully specified; printed as RRAPGKLQCLASYCWLFWTG-Nle-A; cysteine pairing not given here) [RRAPGKLQCLASYCWLFWTG-Nle-A]
< 0.5 µM
